- System tested: Cyclin-dependent kinase 1 (Homo sapiens)
- Assay context: at 1 µM
Listed here are compounds together with their documented inhibition.
Form entry: value (%) — number only.

Here is how some compounds turned out for inhibition.
Compound: NC(=O)c1cccc(Nc2nccc(Nc3cccc4[nH]ncc34)n2)c1
System tested: Cyclin-dependent kinase 1 (Homo sapiens)
Unit descriptor: %
inhibition: 14.5

Compound: CCn1c(-c2nonc2N)nc2ccncc21
System tested: Cyclin-dependent kinase 1 (Homo sapiens)
Unit descriptor: %
inhibition: 1.88

Compound: Cc1ccc(C(=O)NC2CCCCC2)cc1-c1ccc(C(=O)NCC2CC2)cc1
System tested: Cyclin-dependent kinase 1 (Homo sapiens)
Unit descriptor: %
inhibition: 0.28

Compound: CN1CCC(C(=O)Nc2n[nH]c3nnc(-c4ccccc4)cc23)CC1
System tested: Cyclin-dependent kinase 1 (Homo sapiens)
Unit descriptor: %
inhibition: 9.39

Compound: CNC(=O)c1cncc(/C=C/c2c(Cl)cccc2Cl)c1
System tested: Cyclin-dependent kinase 1 (Homo sapiens)
Unit descriptor: %
inhibition: -0.82

Compound: CC1=C(C(=O)Nc2ccc3[nH]ncc3c2)C(c2ccc(F)cc2)NC(=O)N1 (stereo not given)
System tested: Cyclin-dependent kinase 1 (Homo sapiens)
Unit descriptor: %
inhibition: -0.93

Compound: COc1ccc(COc2ccc(Cc3cnc(N)nc3N)cc2OC)cc1
System tested: Cyclin-dependent kinase 1 (Homo sapiens)
Unit descriptor: %
inhibition: 1.42

Compound: COc1ccc(-c2coc3ncnc(N)c23)cc1
System tested: Cyclin-dependent kinase 1 (Homo sapiens)
Unit descriptor: %
inhibition: 3.58

Compound: NC(=O)c1ccc(-c2nc(-c3ccccn3)c(-c3ccc4c(c3)OCO4)[nH]2)cc1
System tested: Cyclin-dependent kinase 1 (Homo sapiens);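 further: mean percent inhibition of the CDK1/cyclin B complex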
Unit descriptor: %
inhibition: 2.49

Shift focus to the following entry.
query: Given the compound COC(=O)Nc1nc2cc(Oc3ccc(NC(=O)Nc4cccc(C(=O)O)c4)cc3)ccc2[nH]1 , what is its reported inhibition?
result: 0.34
